Target entity: HCV polymerase (Hepatitis C virus genotype 1b, UniProt P26663)
Construct: a region encoding NS5B (J Virol 1991 March, 65(3), 1105-13, 544 amino acids after deletion of 47 amino acids on the C-terminal); 6xHis (C); made in house; host or cells: Escherichia coli
Sequence (P26663 2420-2963): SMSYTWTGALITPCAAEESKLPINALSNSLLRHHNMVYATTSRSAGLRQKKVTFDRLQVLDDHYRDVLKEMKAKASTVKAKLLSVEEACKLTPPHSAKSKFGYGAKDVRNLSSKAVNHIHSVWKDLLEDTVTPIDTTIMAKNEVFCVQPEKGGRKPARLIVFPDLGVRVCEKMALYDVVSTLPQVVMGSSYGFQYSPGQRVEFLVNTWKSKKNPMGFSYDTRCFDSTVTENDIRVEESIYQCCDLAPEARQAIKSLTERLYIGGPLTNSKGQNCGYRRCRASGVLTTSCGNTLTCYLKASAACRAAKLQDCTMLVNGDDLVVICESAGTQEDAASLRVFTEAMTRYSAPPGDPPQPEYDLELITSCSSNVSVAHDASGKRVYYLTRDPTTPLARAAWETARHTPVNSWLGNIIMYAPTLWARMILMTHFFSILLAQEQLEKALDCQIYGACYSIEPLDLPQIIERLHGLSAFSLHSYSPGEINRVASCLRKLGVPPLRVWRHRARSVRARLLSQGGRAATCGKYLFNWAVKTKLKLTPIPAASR
Experimental protocol: biochemical
Design: species or system HCV BK strain
pIC50: −log10 of the molar value. Where a name gives a salt, the structure may show the parent alone.
Please respond with reported pIC50 for every item in the list.

# query: pIC50 of entry COc1ccc2c(c1)OCCn1c-2c(C2CCCCC2)c2ccc(C(=O)NC(C)(C)c3nc4ccc(C(=O)N5CCN(C)CC5)cc4[nH]3)cc21
> 7.00

Further, for CC(C)(NC(=O)c1ccc2c(C3CCCCC3)c3n(c2c1)CCOc1ccccc1-3)C(=O)N1CCN(c2ccccc2)CC1 ?
> 7.00

Same thing, different molecule: O=C(O)c1ccc2c(C3CCCCC3)c3n(c2c1)CCN(CCC1CCCNC1)c1ccccc1-3 (stereo not drawn) [Example 1-165, dihydrochloride]
> 7.00

* * *

Target entity: HCV polymerase (Hepatitis C virus genotype 1b)
Construct: a region encoding NS5B (J Virol 1991 March, 65(3), 1105-13, 544 amino acids after deletion of 47 amino acids on the C-terminal); 6xHis (C); made in house; host or cells: Escherichia coli
Experimental protocol: biochemical
Parameters: species or system HCV BK strain
pIC50: −log10 of the molar value. Where a name gives a salt, the structure may show the parent alone.
So I've got a bunch of compounds here, and I need their pIC50 values.

Sample O=C(O)c1ccc2c(C3CCCCC3)c3n(c2c1)CCOc1c-3cccc1N(CCN1CCCOCC1)CCN1CCCOCC1 [Example 2-360, trihydrochloride] — what was its pIC50?
> 7.00

What would you report for COc1ccc2c(c1)OCCn1c-2c(C2CCCCC2)c2ccc(C(=O)NC(C)(C)c3ncc(-c4ccc(C(N)=O)cc4)[nH]3)cc21 [Example 2-546] ?
> 7.00

Moving on to COC(=O)[C@H](Cc1c[nH]cn1)NC(=O)c1ccc2c(C3CCCCC3)c3n(c2c1)CCOc1cc(OC)ccc1-3 [Example 2-280]
> 7.00

Let us now turn to COc1ccc2c(c1)OCCn1c-2c(C2CCCCC2)c2ccc(C(=O)NC(C)(C)c3ncc(-c4ccc(C(=O)O)cc4)[nH]3)cc21 [Example 2-399]
> 7.00

# iterate: CCOC1CCCN(CCN2CCn3c(c(C4CCCCC4)c4ccc(C(=O)O)cc43)-c3ccccc32)C1 (stereo not shown) [Example 1-324, monohydrochloride]
> 7.00

Note, next up: CCc1ccc2c(c1)N(CCCN(CC)CCCOC)CCn1c-2c(C2CCCCC2)c2ccc(C(=O)O)cc21 [Example 1-513, dihydrochloride]
> 7.00

Okay, and Cc1ccc2c(c1)N(CCN1CCC[C@@H](C(C)(C)O)C1)CCn1c-2c(C2CCCCC2)c2ccc(C(=O)O)cc21 [Example 1-533, dihydrochloride] ?
> 7.00

CCCN1CCCC(CCN2CCn3c(c(C4CCCCC4)c4ccc(C(=O)O)cc43)-c3ccc(C)cc32)C1 (stereo not shown) [Example 1-410, dihydrochloride] ?
> 7.00

Next up: COc1ccc2c(c1)OCCn1c-2c(C2CCCCC2)c2ccc(C(=O)N[C@@H](Cc3ccc(OCc4ccccc4)cc3)c3noc(=O)[nH]3)cc21 [Example 2-428]
> 7.00

Note, next up: CCN(CCN1CCCCC1)c1cccc2c1OCCn1c-2c(C2CCCCC2)c2ccc(C(=O)O)cc21 [Example 2-480, dihydrochloride]
> 7.00

How about COC(=O)Nc1ccc(C[C@H](NC(=O)c2ccc3c(C4CCCCC4)c4n(c3c2)CCOc2cc(OC)ccc2-4)C(=O)OC)cc1 [Example 2-362] ?
> 7.00

What about this compound? COc1ccc(CC(C)(C)NC(=O)c2ccc3c(C4CCCCC4)c4n(c3c2)CCOc2ccccc2-4)cc1 [Example 2-219]
6.00 to 7.00

# iterate: COCC1CCCN(CCN2CCn3c(c(C4CCCCC4)c4ccc(C(=O)O)cc43)-c3ccc(OCC(C)C)cc32)C1 (stereo not shown) [Example 1-377, dihydrochloride]
> 7.00
